What pEC50 was measured for each of the following?
assayed-target: Metabotropic glutamate receptor 2 (Rattus norvegicus, UniProt P31421)
Sequence (P31421 whole entry): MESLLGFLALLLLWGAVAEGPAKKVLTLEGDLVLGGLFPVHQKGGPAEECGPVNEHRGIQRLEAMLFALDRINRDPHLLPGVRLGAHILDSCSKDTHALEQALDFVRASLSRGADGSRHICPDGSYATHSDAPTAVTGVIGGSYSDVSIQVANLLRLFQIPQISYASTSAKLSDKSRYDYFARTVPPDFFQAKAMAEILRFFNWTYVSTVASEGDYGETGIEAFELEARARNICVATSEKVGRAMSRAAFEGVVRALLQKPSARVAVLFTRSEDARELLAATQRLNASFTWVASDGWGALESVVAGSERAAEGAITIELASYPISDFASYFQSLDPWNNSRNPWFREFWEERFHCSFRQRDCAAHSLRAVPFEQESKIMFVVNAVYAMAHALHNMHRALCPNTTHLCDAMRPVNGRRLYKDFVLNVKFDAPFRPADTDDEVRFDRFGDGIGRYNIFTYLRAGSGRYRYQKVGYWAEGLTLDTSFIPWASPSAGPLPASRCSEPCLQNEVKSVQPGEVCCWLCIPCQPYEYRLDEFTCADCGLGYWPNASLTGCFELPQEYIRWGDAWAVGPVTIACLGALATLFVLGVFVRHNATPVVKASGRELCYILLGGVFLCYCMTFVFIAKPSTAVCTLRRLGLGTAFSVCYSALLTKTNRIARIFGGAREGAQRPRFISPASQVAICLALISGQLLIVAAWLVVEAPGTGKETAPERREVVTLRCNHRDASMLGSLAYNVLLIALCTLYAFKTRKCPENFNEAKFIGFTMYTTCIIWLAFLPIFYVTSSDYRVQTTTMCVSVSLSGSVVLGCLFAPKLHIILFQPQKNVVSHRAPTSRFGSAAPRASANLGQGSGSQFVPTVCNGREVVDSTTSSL
assay: Agonist activity at rat mGluR2 receptor expressed in HEK293 cells by IP-1 HTRF assay
Assay type: functional, cell-based
run-conditions: read-out: EC50
One number for each entry, as −log10 of the molar value.

Take a look at these entries with their results.
compound	attribute-measured	numeric-result
C[C@@]1(C(=O)O)C[C@@H]1C[C@H](N)C(=O)O (mixture of isomers)	pEC50	5.00
C[C@@]1(C(=O)O)C[C@H]1[C@H](N)C(=O)O	pEC50	7.09
C[C@]1(C(=O)O)C[C@@H]1[C@H](N)C(=O)O	pEC50	5.39

Provide reported pEC50 for each item, in the same order as listed.
1. CC[C@@]1(C(=O)O)C[C@H]1[C@H](N)C(=O)O
2. N[C@@]1(C(=O)O)CO[C@H]2[C@H](C(=O)O)[C@H]21 [LY-379268]
3. C[C@@]1(C(=O)O)C[C@@H]1C(N)C(=O)O (mixture of isomers)
4. C[C@@]1(C[C@H](N)C(=O)O)C[C@@H]1C(=O)O

Found:
1. 5.75
2. 9.22
3. 5.05
4. 5.12
